Target: human AMY3 receptor (CTR/RAMP3) (Homo sapiens, UniProt O60896+P30988)
Sequence (P30988 25-474): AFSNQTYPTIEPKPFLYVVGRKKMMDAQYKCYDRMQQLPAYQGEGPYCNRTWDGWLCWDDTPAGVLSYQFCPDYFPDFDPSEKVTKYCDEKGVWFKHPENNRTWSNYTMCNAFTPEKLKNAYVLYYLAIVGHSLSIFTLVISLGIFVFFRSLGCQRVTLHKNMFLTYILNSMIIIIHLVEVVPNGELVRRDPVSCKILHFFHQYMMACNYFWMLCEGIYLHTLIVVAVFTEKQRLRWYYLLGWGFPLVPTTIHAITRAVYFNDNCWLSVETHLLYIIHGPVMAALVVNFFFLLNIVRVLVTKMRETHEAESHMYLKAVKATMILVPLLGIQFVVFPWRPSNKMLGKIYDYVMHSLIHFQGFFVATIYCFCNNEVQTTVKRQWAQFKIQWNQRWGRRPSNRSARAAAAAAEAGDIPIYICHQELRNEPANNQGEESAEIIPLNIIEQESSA
Sequence (O60896 24-148): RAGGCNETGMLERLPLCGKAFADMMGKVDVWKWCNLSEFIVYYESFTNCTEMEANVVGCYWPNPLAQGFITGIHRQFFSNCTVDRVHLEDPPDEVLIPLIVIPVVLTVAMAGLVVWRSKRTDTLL
Assay: Amylin 3 receptor binding
Measured attribute: pKi
Recall that pKi is obtained by taking minus log10 of the concentration measured in molar.

Ask | # input compound: "CN1C[C@@](C)(c2cc(F)cc(F)c2)N(CC(=O)Nc2ccc3c(c2)C[C@@]2(C3)C(=O)Nc3ncccc32)C(=O)C12CCCC2" ; wanted: its pKi
Reply | 6.67

====

Molecular target: human CGRP receptor (CL receptor/RAMP1) (Homo sapiens, UniProt O60894+Q16602)
Sequence (Q16602 23-461): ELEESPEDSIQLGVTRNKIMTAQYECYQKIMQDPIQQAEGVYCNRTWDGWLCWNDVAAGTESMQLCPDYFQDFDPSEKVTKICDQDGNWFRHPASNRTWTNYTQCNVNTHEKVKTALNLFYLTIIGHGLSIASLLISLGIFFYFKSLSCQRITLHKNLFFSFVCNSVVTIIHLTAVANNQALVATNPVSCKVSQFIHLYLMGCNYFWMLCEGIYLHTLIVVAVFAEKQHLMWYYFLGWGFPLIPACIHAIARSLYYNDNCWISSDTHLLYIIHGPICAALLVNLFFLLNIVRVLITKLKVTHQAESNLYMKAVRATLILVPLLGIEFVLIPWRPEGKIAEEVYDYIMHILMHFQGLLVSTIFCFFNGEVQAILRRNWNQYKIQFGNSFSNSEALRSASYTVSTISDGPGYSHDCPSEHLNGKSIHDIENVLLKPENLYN
Sequence (O60894 27-148): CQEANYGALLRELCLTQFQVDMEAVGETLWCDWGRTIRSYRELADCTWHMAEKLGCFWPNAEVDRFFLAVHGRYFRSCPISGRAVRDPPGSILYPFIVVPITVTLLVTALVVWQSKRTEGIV
Assay: Recombinant receptor cAMP functional assay
Settings: in the presence of 50% human serum
Measured attribute: pIC50
Friendly reminder that pIC50 comes from taking -log10 of the concentration in mol/L.

Ask | Would you mind telling me what pIC50 value was observed for "CN1C[C@@](C)(c2cc(F)cc(F)c2)N(CC(=O)Nc2ccc3c(c2)C[C@@]2(C3)C(=O)Nc3ncccc32)C(=O)C12CCCC2" ?
Reply | 9.68

====

Target: adrenomedullin 2 receptor, CLR-RAMP3 (Homo sapiens, UniProt O60896+Q16602)
Sequence (O60896 24-148, one chain of several): as the sequence (O60896 24-148) above
Assay: Adrenomedullin 2 receptor binding (selectivity)
Description: The octanol/water partition coefficient (Log P) of the compound of Example 1 was determined by partitioning the compound between octanol and phosphate buffer at pH 7.4 and measuring the concentration of the compound in each layer by LC-MS/MS. […] The compound of Example 1 was tested in the receptor binding and functional cell-based assays carried out in the presence and absence of human serum.
Measured attribute: Ki (nM)
Dear colleague, please return just the value in nM, with no unit written.

Ask | For the record "CN1C[C@@](C)(c2cc(F)cc(F)c2)N(CC(=O)Nc2ccc3c(c2)C[C@@]2(C3)C(=O)Nc3ncccc32)C(=O)C12CCCC2" , what value of Ki is listed for adrenomedullin 2 receptor, CLR-RAMP3 (Homo sapiens, UniProt O60896+Q16602)?
Reply | 211

====

Target: human AMY1 receptor (CTR/RAMP1) (Homo sapiens, UniProt O60894+P30988)
Sequence (P30988 25-474, one chain of several): as the sequence (P30988 25-474) above
Experiment: Amylin 1 receptor binding
Measured attribute: Ki
Please report the result as a number followed by the unit.

Ask | Would you kindly share the measured Ki for CN1C[C@@](C)(c2cc(F)cc(F)c2)N(CC(=O)Nc2ccc3c(c2)C[C@@]2(C3)C(=O)Nc3ncccc32)C(=O)C12CCCC2 [Example 1] ?
Reply | 0.6 nM

====

Test system: rat P-gp
Assay: Bidirectional transport, rat P-gp
Assay type: in vitro ADME
Settings: LLC-PK1, read-out: B−A/A−B ratio
Measured attribute: efflux ratio at 5 μM
Please respond with just the number, no unit label.

Ask | Look up efflux ratio at 5 μM for this molecule: "CN1C[C@@](C)(c2cc(F)cc(F)c2)N(CC(=O)Nc2ccc3c(c2)C[C@@]2(C3)C(=O)Nc3ncccc32)C(=O)C12CCCC2"
Reply | 3.1

====

Target: human P-glycoprotein (P-gp) (Homo sapiens)
Construct: expressed in transfected cells; host or cells: LLC-PK1
Test: Bidirectional transport across LLC-PK1 monolayers, human P-gp
Format: in vitro ADME
Conditions: LLC-PK1; human P-gp, 0.1 μM; read-out: B−A/A−B ratio
Measured attribute: efflux ratio at 0.1 μM
Format: numeric value only, no unit, no commentary.

Ask | Reported efflux ratio at 0.1 μM, compound CN1C[C@@](C)(c2cc(F)cc(F)c2)N(CC(=O)Nc2ccc3c(c2)C[C@@]2(C3)C(=O)Nc3ncccc32)C(=O)C12CCCC2 [Example 1] : ____
Reply | 3.5

====

Target: human P-glycoprotein (P-gp) (Homo sapiens, UniProt P08183)
Construct: expressed in transfected cells; host or cells: LLC-PK1
Sequence (P08183 whole entry): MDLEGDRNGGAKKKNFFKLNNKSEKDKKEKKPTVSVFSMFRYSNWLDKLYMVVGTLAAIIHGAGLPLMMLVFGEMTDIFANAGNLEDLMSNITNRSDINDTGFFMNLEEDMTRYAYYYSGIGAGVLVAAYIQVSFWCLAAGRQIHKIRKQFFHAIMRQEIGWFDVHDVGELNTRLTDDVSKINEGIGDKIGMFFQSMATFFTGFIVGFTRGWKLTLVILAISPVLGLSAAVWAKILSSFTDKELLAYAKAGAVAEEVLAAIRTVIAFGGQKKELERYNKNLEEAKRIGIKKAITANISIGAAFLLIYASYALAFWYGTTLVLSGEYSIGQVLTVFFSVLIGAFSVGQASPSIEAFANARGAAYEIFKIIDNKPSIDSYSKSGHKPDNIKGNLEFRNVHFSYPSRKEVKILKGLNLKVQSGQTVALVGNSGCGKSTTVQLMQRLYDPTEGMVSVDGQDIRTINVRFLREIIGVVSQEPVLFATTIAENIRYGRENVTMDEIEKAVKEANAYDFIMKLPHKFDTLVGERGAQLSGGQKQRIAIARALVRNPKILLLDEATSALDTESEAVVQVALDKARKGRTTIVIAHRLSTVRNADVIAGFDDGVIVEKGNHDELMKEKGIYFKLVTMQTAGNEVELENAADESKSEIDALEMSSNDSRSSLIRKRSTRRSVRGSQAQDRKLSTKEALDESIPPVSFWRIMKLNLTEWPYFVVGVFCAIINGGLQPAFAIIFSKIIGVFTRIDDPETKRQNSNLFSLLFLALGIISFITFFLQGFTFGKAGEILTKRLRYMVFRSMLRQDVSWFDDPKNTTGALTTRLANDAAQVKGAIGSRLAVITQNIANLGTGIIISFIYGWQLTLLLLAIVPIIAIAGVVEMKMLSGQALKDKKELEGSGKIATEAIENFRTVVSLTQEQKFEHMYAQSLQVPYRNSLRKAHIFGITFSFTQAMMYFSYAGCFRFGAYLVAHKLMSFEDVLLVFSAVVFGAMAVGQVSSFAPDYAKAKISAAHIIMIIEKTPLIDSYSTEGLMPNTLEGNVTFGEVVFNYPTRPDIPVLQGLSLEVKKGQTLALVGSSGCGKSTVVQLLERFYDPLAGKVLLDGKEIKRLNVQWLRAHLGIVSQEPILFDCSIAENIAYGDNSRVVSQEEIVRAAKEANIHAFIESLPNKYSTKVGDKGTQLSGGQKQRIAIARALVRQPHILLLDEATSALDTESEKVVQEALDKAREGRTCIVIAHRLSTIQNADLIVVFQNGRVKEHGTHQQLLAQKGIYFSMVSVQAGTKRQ
Assay: Bidirectional transport across LLC-PK1 monolayers, human P-gp
Assay type: in vitro ADME
Details: LLC-PK1; human P-gp, 5 μM; read-out: B−A/A−B ratio
Experimental: The bidirectional transport of the compound of Example 1 was evaluated across mono-layers of LLC-PK1 cells over-expressing human P-glycoprotein (Ohe et al., 2003).
Measured attribute: efflux ratio at 5 μM
Could you keep your reply to the number by itself?

Ask | Please report the recorded efflux ratio at 5 μM for CN1C[C@@](C)(c2cc(F)cc(F)c2)N(CC(=O)Nc2ccc3c(c2)C[C@@]2(C3)C(=O)Nc3ncccc32)C(=O)C12CCCC2 [Example 1] .
Reply | 1.7

====

Assay: Octanol/water partition coefficient (Log P)
Type: physicochemical
Conditions: octanol / phosphate buffer pH 7.4, LC-MS/MS
Measured attribute: logP
The answer should be a number; do not append a unit.

Ask | Need logP, item "CN1C[C@@](C)(c2cc(F)cc(F)c2)N(CC(=O)Nc2ccc3c(c2)C[C@@]2(C3)C(=O)Nc3ncccc32)C(=O)C12CCCC2"
Reply | 3.38

====

System: African green monkey P-gp
Test: Bidirectional transport, African green monkey P-gp
Assay type: in vitro ADME
Details: LLC-PK1; African green monkey P-gp, 0.5 μM; read-out: B−A/A−B ratio
Measured attribute: efflux ratio at 0.5 μM

Ask | // query efflux ratio at 0.5 μM value for entry "CN1C[C@@](C)(c2cc(F)cc(F)c2)N(CC(=O)Nc2ccc3c(c2)C[C@@]2(C3)C(=O)Nc3ncccc32)C(=O)C12CCCC2"
Reply | 4.1

====

Experiment: Passive permeability (Papp)
Type: in vitro ADME
Settings: pig, LLC-PK1, read-out: average apparent permeability coefficient (Papp)
Measured attribute: Papp (×10⁻⁶ cm/s)
Respond numerically; units are ×10⁻⁶ cm/s and should not be typed.

Ask | May I ask what Papp has been recorded for "CN1C[C@@](C)(c2cc(F)cc(F)c2)N(CC(=O)Nc2ccc3c(c2)C[C@@]2(C3)C(=O)Nc3ncccc32)C(=O)C12CCCC2" ?
Reply | 26
